# ASSAY TEXT: AUC(0 to t) in Wistar rat at 15 mg/kg, po measured up to 24 hrs by LC-MS/MS analysis
# Type: ADME, organism-based
# Parameters: route oral, dose 15 mg/kg, time <=24
# EXPERIMENTAL SETUP: in vivo
READOUT KIND: AUC(0-t) at 24 h

COc1ccccc1S(=O)(=O)Nc1ccc2c(c1)C(=C(C)C)C(=O)N2 : 14400 ng·h/mL

###

# ASSAY TEXT: AUC(0 to infinity) in Wistar rat at 15 mg/kg, po measured up to 24 hrs by LC-MS/MS analysis
# Assay type: ADME, organism-based
# Set-up: route oral, dose 15 mg/kg, time <=24
# EXPERIMENTAL SETUP: in vivo
READOUT KIND: AUC(0-inf) (ng·h/mL)

COc1ccccc1S(=O)(=O)Nc1ccc2c(c1)C(=C(C)C)C(=O)N2 : 14600
